Let's look at some compounds and their measured IC50.
tested on: Coxsackievirus B3; assay: Antiviral activity against Coxsackievirus B3 assessed as reduction of virus-induced cytopathogenicity after 3 days by MTS assay; assay type: functional, organism-based; conditions: Enterovirus B, 72 h
Readout Kind: IC50 (µM)

>>> obs_value("COc1cccc(Oc2ccc([N+](=O)[O-])cc2C#N)c1")
12
>>> obs_value("N#Cc1cc([N+](=O)[O-])ccc1Oc1ccc([N+](=O)[O-])cc1")
3.3
>>> obs_value("Cc1ccccc1Oc1ccc([N+](=O)[O-])cc1C#N")
57
>>> obs_value("N#Cc1cc([N+](=O)[O-])ccc1Oc1cccc(Cl)c1")
4.9
